Target protein (sequence): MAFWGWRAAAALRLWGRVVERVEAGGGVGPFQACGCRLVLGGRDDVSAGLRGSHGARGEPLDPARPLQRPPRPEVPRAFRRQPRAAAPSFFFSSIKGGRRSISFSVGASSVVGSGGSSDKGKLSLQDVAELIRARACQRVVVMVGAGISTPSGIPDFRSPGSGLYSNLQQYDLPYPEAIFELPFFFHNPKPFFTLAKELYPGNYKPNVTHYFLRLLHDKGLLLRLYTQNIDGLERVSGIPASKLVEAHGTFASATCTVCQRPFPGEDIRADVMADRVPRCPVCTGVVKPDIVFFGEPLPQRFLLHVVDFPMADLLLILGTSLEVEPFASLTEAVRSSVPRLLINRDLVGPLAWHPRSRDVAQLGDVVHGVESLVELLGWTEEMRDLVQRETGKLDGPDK
REPORTED METRIC: IC50

MOLECULE	RESULT
CCCCCCCCCCCCCC(=S)NCCCC[C@H](NC(=O)CCOCCOCCOCCOCCNc1cccc2c1C(=O)N(C1CCC(=O)NC1=O)C2=O)C(=O)Nc1ccccc1 (stereo partly drawn)	> 83 µM
CCCCCCCCCCCCCC(=S)NCCCC[C@H](NC(=O)OCc1ccccc1)C(=O)Nc1ccccc1	> 83 µM
CCCCCCCCCCCCCC(=S)NCCCC[C@H](NC(=O)CCOCCOCCNc1cccc2c1C(=O)N(C1CCC(=O)NC1=O)C2=O)C(=O)Nc1ccccc1 (stereo partly drawn)	> 83 µM

* * *

MEASURED TARGET: UniProt:Q8IXJ6
Sequence (Q8IXJ6 whole entry): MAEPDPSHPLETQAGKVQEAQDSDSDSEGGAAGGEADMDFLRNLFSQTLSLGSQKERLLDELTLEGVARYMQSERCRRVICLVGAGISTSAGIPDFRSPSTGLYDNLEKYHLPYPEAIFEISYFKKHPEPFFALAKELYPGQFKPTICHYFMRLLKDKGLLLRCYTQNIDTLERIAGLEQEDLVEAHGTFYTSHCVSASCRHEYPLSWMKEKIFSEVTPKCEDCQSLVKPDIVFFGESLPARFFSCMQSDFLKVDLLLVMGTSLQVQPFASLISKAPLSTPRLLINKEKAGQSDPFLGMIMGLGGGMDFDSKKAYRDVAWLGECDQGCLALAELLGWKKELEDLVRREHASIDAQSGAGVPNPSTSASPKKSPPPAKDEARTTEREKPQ
PROCEDURE SUMMARY: Inhibition of human SIRT2 deacetylation activity using H3K9Ac as substrate preincubated for 15 mins in presence of NAD+ by HPLC analysis

MOLECULE	IC50 / nM
CCCCCCCCCCCCCC(=S)NCCCC[C@H](NC(=O)CCOCCOCCNc1cccc2c1C(=O)N(C1CCC(=O)NC1=O)C2=O)C(=O)Nc1ccccc1 (some centres not stated)	69
CCCCCCCCCCCCCC(=S)NCCCC[C@H](NC(=O)CCOCCOCCOCCOCCNc1cccc2c1C(=O)N(C1CCC(=O)NC1=O)C2=O)C(=O)Nc1ccccc1 (some centres not stated)	78

* * *

MEASURED TARGET: NAD-dependent protein deacetylase sirtuin-1 (Homo sapiens, UniProt Q96EB6)
Sequence (Q96EB6 whole entry): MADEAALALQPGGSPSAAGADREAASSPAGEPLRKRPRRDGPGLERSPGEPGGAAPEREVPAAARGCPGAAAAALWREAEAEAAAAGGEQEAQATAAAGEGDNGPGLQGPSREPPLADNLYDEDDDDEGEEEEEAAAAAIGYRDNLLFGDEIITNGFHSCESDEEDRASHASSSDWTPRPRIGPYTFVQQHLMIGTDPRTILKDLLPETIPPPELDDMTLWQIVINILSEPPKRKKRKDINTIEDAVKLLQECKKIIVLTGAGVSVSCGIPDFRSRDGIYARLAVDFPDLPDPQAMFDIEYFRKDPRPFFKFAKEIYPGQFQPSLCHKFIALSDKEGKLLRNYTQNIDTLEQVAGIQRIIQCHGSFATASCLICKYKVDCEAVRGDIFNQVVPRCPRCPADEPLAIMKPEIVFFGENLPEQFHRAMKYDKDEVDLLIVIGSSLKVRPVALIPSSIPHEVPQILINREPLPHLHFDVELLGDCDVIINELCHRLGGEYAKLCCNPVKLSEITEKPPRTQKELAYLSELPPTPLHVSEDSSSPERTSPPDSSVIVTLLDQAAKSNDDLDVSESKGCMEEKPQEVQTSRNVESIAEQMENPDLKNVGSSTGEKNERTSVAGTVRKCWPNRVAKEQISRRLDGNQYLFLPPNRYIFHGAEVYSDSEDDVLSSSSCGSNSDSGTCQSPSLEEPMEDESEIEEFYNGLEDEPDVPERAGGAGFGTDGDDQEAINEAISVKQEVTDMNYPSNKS
pIC50: −log10 of the molar value.
REPORTED METRIC: pIC50

MOLECULE	REPORTED METRIC	NUMERIC READOUT
CCCCCCCCCCCCCC(=S)NCCCC[C@H](NC(=O)CCOCCOCCOCCOCCNc1cccc2c1C(=O)N(C1CCC(=O)NC1=O)C2=O)C(=O)Nc1ccccc1 (stereo partly specified)	pIC50	4.39

// provenance: ChEMBL document CHEMBL4725483
